The reported measurements were obtained from PubChem BioAssay (NCI).

Test: NCI Yeast Anticancer Drug Screen. Data for the sgs1 mgt1 strain (AID 161);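 note: 0% = growth of cultures given vehicle only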
Settings: S. cerevisiae sgs1 mgt1 strain, at 5.0 µM (retest, dose inferred, filed as 0.5), hits give high values
About 79,000 compounds went through this panel and 15% of them were active in at least one assay; those are over-represented in the sample as a whole. *1 amine or outer side, *2 acyl side, *3 side chain or, on linkers, in order; H or OH if unused. Where a SMILES comes first, the peptide text is derived from it. Bridges are numbered along the chain shown (N, C = ends). Roman numbers before positions name the chains, in order. [ ]: non-standard residue; d: D form. Actinocin(9to1) = Cc1c2oc3c(C)ccc(C(=O)[*:1])c3nc-2c(C(=O)[*:2])c(N)c1=O; NMeV = CN[CH](C(=O)O)C(C)C; Pip = O=C(O)[CH]1CCCCN1; Sar = CNCC(=O)O
Can you tell me growth inhibition for the items I'm about to list?
Your answer should be a plain number; it is taken to be in %.

Task: Any idea what its growth inhibition is? The compound is `Oc1c(Br)cc(Br)c2cccnc12`
Result: 88

Task: Cool, now `CC1CCN(c2cc(-c3cc4ccccc4o3)oc(=O)c2C#N)CC1`
Result: 3

Task: Cool, now CCN(CC)CC(O)c1ccc2cc(Cl)c3ccccc3c2c1 (configuration not stated)
Result: 25

Task: Cool, now C=CC[C@]1(C(C)Cc2ccc(OC)c(OC)c2)C[C@@H](OC)C=CC1=O (some centres not stated)
Result: 0

Task: Cool, now `C=C1OC(=O)C(=O)N1CC(=O)O`
Result: -61

Task: Cool, now CC(C)CC(C(=O)SCC(C)N1CCCC1)c1ccccc1 (configuration not stated)
Result: 26

Task: Cool, now `CN(C)CCCNc1c2ccccc2nc2ccc(F)cc12`
Result: 6

Task: Cool, now `O=C(Nc1ccc(S(=O)(=O)NC2CCCCC2)cc1)OC1CCCCCCC1`
Result: 72

Task: Cool, now `O=[N+]([O-])c1ccc(Sc2ccc([N+](=O)[O-])o2)cc1`
Result: 95

Task: Cool, now `O=[N+]([O-])c1ccccc1N=Nc1c(O)[nH]c2ccc(S(=O)(=O)O)cc12`
Result: 68

Task: Cool, now COc1cccc(/C=C2\CCC(CN(C)C)C2=O)c1 (configuration not stated)
Result: 39

Task: Cool, now `COc1ccc(CCCCC(=O)O)cc1O`
Result: -56

Task: Cool, now `CCCCCCc1c(Cl)nc(Cl)nc1Cl`
Result: -6

Task: Cool, now CCCCCCCCCCCC(C)N (configuration not stated)
Result: 4

Task: Cool, now `O=c1[nH]c2c([N+](=O)[O-])cc(Cl)cc2nc1/C=C(\O)c1ccc(F)cc1`
Result: 3

Task: Cool, now CCN(CC)CCOc1ccc(C(O)(Cc2ccc(Cl)cc2)c2ccccc2)cc1 (configuration not stated)
Result: 58

Task: Cool, now COc1cc2c(cc1O)CCN[C@@]21CS[C@H]2c3c(OC(C)=O)c(C)c4c(c3C(COC1=O)N1C2C2c3c(cc(C)c(OC)c3O)CC([C@@H]1O)N2C)OCO4 (some centres not stated)
Result: 99

Task: Cool, now O=C1c2ccccc2C(=O)C2(C(c3ccccc3)c3ccccc3)N=NCC12 (configuration not stated)
Result: 0

Task: Cool, now `Cc1ccc(Nc2nc3nc[nH]c3c(=O)[nH]2)cc1CO`
Result: -12

Task: Cool, now Cc1c2oc3c(C)ccc(C(=O)NC4C(=O)NC(C(C)C)C(=O)N5CCCCC5C(=O)N(C)CC(=O)N(C)C(C(C)C)C(=O)OC4C)c3nc-2c(C(=O)NC2C(=O)NC(C(C)C)C(=O)N3CCCCC3C(=O)N(C)CC(=O)N(C)C(C(C)C)C(=O)OC2C)c(N)c1=O (configuration not stated) (I: TV[Pip][Sar][NMeV] / II: TV[Pip][Sar][NMeV]; ester I:1-I:C, II:1-II:C; linker I:N-II:N via Actinocin(9to1); configuration not given here)
Result: 7

Task: Cool, now `CCCCC#C[I+]c1ccccc1`
Result: 54

Task: Cool, now `Oc1cccnc1CN1CCCCC1`
Result: 7

Task: Cool, now `CC1=C(C)C(=O)C2=C(OCCCO2)C1=O`
Result: -2

Task: Cool, now `CCOC(=O)N1C=C(C(=O)OC)C(c2ccccc2)C(C(=O)OC)=C1`
Result: 5

Task: Cool, now COc1c(O)ccc2c1CN1CCc3cc4c(cc3C1C2)OCO4 (configuration not stated)
Result: 9

Task: Cool, now `NC(=O)N/N=C(/Cc1nc2ccccc2nc1C/C(=N/NC(N)=O)c1cccc2ccccc12)c1cccc2ccccc12`
Result: -1

Task: Cool, now CCC1(CC(=O)O)OCCc2c1[nH]c1c(C)c(Cl)ccc21 (configuration not stated)
Result: 2

Task: Cool, now `COC(C)(C)[C@@H]1CCCN1C1=C(C)C(=O)OC1`
Result: 61

Task: Cool, now `C[n+]1c(-c2ccc(/C=N/NC(=O)c3ccc(C(=O)N/N=C/c4ccc(-c5cn6ccccc6[n+]5C)cc4)nc3)cc2)cn2ccccc21`
Result: 35

Task: Cool, now `CCCCCCCCCCCCCCCC[N+](C)(C)CC(=O)O`
Result: 19

Task: Cool, now `N#CSCC(=O)c1ccc2ccccc2c1`
Result: 97

Task: Cool, now `O=C1c2ccccc2C(=O)c2c(OCCOCCO)cccc21`
Result: 2

Task: Cool, now `Cc1cccc(C)c1N=Nc1c(C)nc(N)nc1-c1ccccc1`
Result: 5

Task: Cool, now `Clc1ccc(/C=N\Nc2c3ccccc3nc3ccccc23)cc1Cl`
Result: 1

Task: Cool, now `Cc1cc(C)n2nc(N)c(C#N)c2c1C#N`
Result: 2

Task: Cool, now `CS(=O)(=O)OCCN(CCOS(C)(=O)=O)c1ccc(C=Nc2cc(Br)c(O)c(Br)c2)c(Cl)c1`
Result: 3

Task: Cool, now `Cc1c(NC(=O)CCl)c(=O)oc2c(C)c3occc(=O)c3cc12`
Result: 7

Task: Cool, now `SCCCCCCCCCCS`
Result: 1

Task: Cool, now `c1ccc2c(CCc3ccncc3)cccc2c1`
Result: 1

Task: Cool, now `O=C1C=CC(=O)C(c2ccc(Cl)cc2)=C1`
Result: 33

Task: Cool, now `CS[C@H]1CC[C@H]2[C@@H]3CCc4cc(O)ccc4[C@H]3CC[C@]12C`
Result: 0

Task: Cool, now `Cc1ccccc1P(=O)(c1ccccc1C)c1ccccc1C`
Result: 10

Task: Cool, now `COc1cc(C(=O)CBr)c2ccc(Cl)cc2n1`
Result: 94

Task: Cool, now `CCCCN(CCCC)C(=O)c1ccc(OC(=O)OCC)c(OC)c1`
Result: 2

Task: Cool, now `O=[N+]([O-])c1cccc2nc3ccccc3c(NCCNCCO)c12`
Result: 90

Task: Cool, now `O=[N+]([O-])c1ccc(S(=O)(=O)Cc2ccccc2)c2nonc12`
Result: 10

Task: Cool, now `CCOc1ccc(C(OC)OC)cc1[N+](=O)[O-]`
Result: -11
